molecular target: T1, integrin αIIbβ3, purified and immobilized (UniProt P08514 32-1039; P05106 27-788); test: competition, 125I-fibrinogen (1 nM) binding to immobilized purified αIIbβ3, gamma counting; mean of duplicates ± SD
T1 construct: Purified integrin coated at 50 ng per well; also called α11bβ3
Square brackets hold non-standard residues; d marks the D form.
Kindly supply the reported IC50 values for the records listed here.
Lab book: enter the figure in µM, no units written.

Need IC50, item cyclo(ARGD[dF]L) (also: TFA salt, TFA salt) [peptide 62175, cyclo(ARGDfL)]
0.63

Another binder to look at: cyclo(RAD[dF]V) (also: TFA salt, also called cyclo(Arg-Ala-Asp-D-Phe-Val)) [peptide 62185, cyclo(RADfV)]
100

Another binder to look at: cyclo(GRGD[dF]L) (also: TFA salt, TFA salt) [peptide 62179, cyclo(GRGDfL)]
0.055

Another binder to look at: cyclo(R[dA]DFV) (also: TFA salt, TFA salt; also called cyclo(Arg-D-Ala-Asp-Phe-Val)) [peptide 62186, cyclo(RaDFV)]
100

Another binder to look at: cyclo(G[dR]GDFV) (also: TFA salt, TFA salt; also called cyclo(-Gly-D-Arg-Gly-Asp-Phe-Val); c-(GrGDFV)) [peptide 62181, cyclo(GrGDFV)]
15
